The binders listed here are annotated with their ELISA binding hIL-12RB2/control.
Target: T1, biotinylated recombinant human IL-12Rβ2 (human, UniProt Q99665 24-622, random biotinylated)
T1 construct: Recombinant protein produced in-house, biotinylated; also called hIL-12RB2; human IL-12RB2
T1 sequence: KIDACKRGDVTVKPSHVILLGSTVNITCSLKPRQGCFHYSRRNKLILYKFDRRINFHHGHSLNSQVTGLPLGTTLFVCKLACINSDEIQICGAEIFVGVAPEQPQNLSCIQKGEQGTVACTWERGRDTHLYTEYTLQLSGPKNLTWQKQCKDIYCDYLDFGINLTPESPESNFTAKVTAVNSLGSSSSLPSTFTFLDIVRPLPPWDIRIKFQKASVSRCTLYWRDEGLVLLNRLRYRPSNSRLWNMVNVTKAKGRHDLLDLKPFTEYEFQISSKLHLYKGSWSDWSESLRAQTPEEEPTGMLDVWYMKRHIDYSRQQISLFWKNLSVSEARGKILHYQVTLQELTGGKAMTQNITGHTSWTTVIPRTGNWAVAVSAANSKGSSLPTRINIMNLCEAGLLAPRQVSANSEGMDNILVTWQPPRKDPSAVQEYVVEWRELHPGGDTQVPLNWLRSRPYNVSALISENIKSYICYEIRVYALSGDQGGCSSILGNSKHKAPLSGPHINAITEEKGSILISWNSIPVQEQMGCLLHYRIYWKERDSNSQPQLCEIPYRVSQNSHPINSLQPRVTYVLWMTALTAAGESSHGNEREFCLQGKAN
Assay: ELISA, periplasmic extract on biotinylated hIL-12Rβ2, signal over control wells
Provide the reading as a plain figure in ratio.

* anti-IL-12Rβ2 VHH clone 20474 (VHH, not shown: small tags and cut ends, tested as periplasmic extract; also called 2CAM16) VHH: QVQLQESGGGLVQAGGSLRLSCAASGFTFDDYTIGWFRQAPGKEREFVAALSWSAGSTFFTDSVKDRFSISRDNAKNTVLLQMNSLKPEDTAVYYCAAKNPPHRWSDITKSLQYAYWGQGTQVTVSS | 1.01
* anti-IL-12Rβ2 VHH clone 20444 (VHH, not shown: small tags and cut ends, tested as periplasmic extract; also called 2CRM18) VHH: QVQLQESGGGLVQAGGSLRLSCTASGSIFAIDDMYWYRQAPGKQREFVAYITATNSANYLDSVNGRFTISRDNAKNSVYLQMNSLKPEDTAVYYCNAKQIVGFQIDEYWGQGTQVTVSS | 0.985
* anti-IL-12Rβ2 VHH clone 21054 (VHH, not shown: small tags and cut ends, tested as periplasmic extract; also called 3CRHM18) VHH: QVQLQESGGGLVQDGGSLRLSCAASGRTFSNYAMAWFRQAPGTEREFVAGLSGSGGDTAFYDNSVMGRFTISRDSAKNTMWLQINNLKPEDTAVYYCAAATHVVVSYGLVRKRGTYDYWGQGTQVTVSS | 3.61
* anti-IL-12Rβ2 VHH clone 20454 (VHH, not shown: small tags and cut ends, tested as periplasmic extract; also called 2CRM93) VHH: QVQLQESGGGLVQAGDSLRLSCTASGSIFAIDDMYWYRQAPGKQREFVAYITATNSANYLDSVNGRFTISRDNAENSVYLQMNSLKPEDTVVYYCNAKQIVGFQIDEYWGQGTQVTVSS | 0.996
* anti-IL-12Rβ2 VHH clone 20548 (VHH, not shown: small tags and cut ends, tested as periplasmic extract; also called 3CAMS50) VHH: QVQLQESGGGLVQAGGSLRLSCADSGRTFSSYGMGWFRQAPGKEREFVAAISRGARITDYADSVKGRFTISRDNAKNTAYLQMNSLNPEDTAVYFCAAAYTYSGSHYVTARSSDYHSWGQGTQVTVSS | 0.951
* anti-IL-12Rβ2 VHH clone 20477 (VHH, not shown: small tags and cut ends, tested as periplasmic extract; also called 2CAM27) VHH: QVQLQESGGGLVQAGGSLRLSCAPSGRTFSTYAMGWFRQALGKEREVVATISWSGGRIYYTDSVKGRFTISRDNAKNTAYLQMNSLRPDDTAVYYCAARGTDYGAWEYWGQGTQVTVSS | 1.02
* anti-IL-12Rβ2 VHH clone 21060 (VHH, not shown: small tags and cut ends, tested as periplasmic extract; also called 3CRHM73) VHH: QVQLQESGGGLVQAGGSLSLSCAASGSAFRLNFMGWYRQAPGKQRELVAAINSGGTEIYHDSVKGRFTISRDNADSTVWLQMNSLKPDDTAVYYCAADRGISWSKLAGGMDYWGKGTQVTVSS | 6.9
* anti-IL-12Rβ2 VHH clone 20473 (VHH, not shown: small tags and cut ends, tested as periplasmic extract; also called 2CAM14) VHH: QVQLQESGGGLVQAGDSLRLSCAASGRTFSSYTMGWFRQAPGKEREFVARISQDGGSTYYADSMKGRFTVARDNAKNTVYLQMNSLKPEDTAVYYCAADMIKWGLRVGVDSFKYWGQGTQVTVSS | 0.971
* anti-IL-12Rβ2 VHH clone 20447 (VHH, not shown: small tags and cut ends, tested as periplasmic extract; also called 2CRM39) VHH: QVQLQESGGGLVQPGGSLRLSCAASGFTFRSYAMSWVRQAPGKGLEWVSSISSSGTDTNYADSVKGRLTISRDNVKNTLYLQMNSLKPEDTAVYYCAKASQNYSPPGQGTQVTVSS | 1.4
* anti-IL-12Rβ2 VHH clone 20451 (VHH, not shown: small tags and cut ends, tested as periplasmic extract; also called 2CRM83) VHH: QVQLQESGGGLVQPGGSLRLSCAASGFTFSAYAMSWVRQAPGKGLEWVSSISSTGTNPNYADSVKGRFTISRDNAKNTLYLQMNSLKPEDTAVYYCAEAYRNYSPPGQGTQVTVSS | 1.26

Query: Kindly indicate its recorded ELISA binding hIL-12RB2/control. Item: anti-IL-12Rβ2 VHH clone 20496 (VHH, not shown: small tags and cut ends, tested as periplasmic extract; also called 2CAM71) VHH: QVQLQESGGGLVQAGGSLRLSCAASGRTLSNSVMGWFRQAPGKEREFVAALMWSAGSEFYTDSVKGRFSISGDGAKNTVYLQMNSLKAEDTAVYYCAAKNPPHRWSDIGKSPHYEYWGQGTQVTVSS
Reply: 1.01

Query: Kindly indicate its recorded ELISA binding hIL-12RB2/control. Item: anti-IL-12Rβ2 VHH clone 20510 (VHH, not shown: small tags and cut ends, tested as periplasmic extract; also called 3CAM31) VHH: QVQLQESGGGLVQAGGSLRLSCAASGRTFSSYGMGWFRQAPGKEREFVAAISRGARITDYADSVKGRFTISRDNAKNTAYLQMNSLNPEDTAVYFCAAAYTYSGSHYVTARSSDYHSWGQGTQVTVSS
Reply: 1.2

Query: Kindly indicate its recorded ELISA binding hIL-12RB2/control. Item: anti-IL-12Rβ2 VHH clone 21055 (VHH, not shown: small tags and cut ends, tested as periplasmic extract; also called 3CRHM20) VHH: QVQLQESGGGLVQAGGSLRLSCAASGRTFSKSTMGWFRQTPGKEREFVAAITWTDTEVYANSVKDRFTISRDNAKNTFYLQMHSLKLEDTAVYYCAGDRYGSSRDSVFSSPTNYPYWGQGTQVTVSS
Reply: 8.23

Query: Kindly indicate its recorded ELISA binding hIL-12RB2/control. Item: anti-IL-12Rβ2 VHH clone 20500 (VHH, not shown: small tags and cut ends, tested as periplasmic extract; also called 2CAM81) VHH: QVQLQESGGGLVQPGGSLRLSCAASGFTFSSYGMGWFRQAPGKEREFVAAISRDARITDYADSVKGRFTISRDNAKNTAYLEMNSLNPEDTAVYFCAAAYTYSGSHYVTARSSDYHSWGQGTQVTVSS
Reply: 0.982

Query: Kindly indicate its recorded ELISA binding hIL-12RB2/control. Item: anti-IL-12Rβ2 VHH clone 20370 (VHH, not shown: small tags and cut ends, tested as periplasmic extract; also called 2CRH76) VHH: QVQLQESGGGLVQTGGSLRLSCVASGRTFNWSAMGWFRQPPGKEREVVATISGGGTSAYYADSVKGRFTISRDGAKNTLYLQMNSLKPEDTAVYYCAADRVDYRMTLTQNGNHYWGQGTQVTVSS
Reply: 4.57
